# target_or_system: apo-human transferrin (apo-hTf) (Homo sapiens)
# test: Far-UV circular dichroism titration of apo-hTf, secondary structure content
# experimental_setup: compound concentration 2.4 (M)
Measured β-sheet content of apo-hTf, listed per entry for reference.
Reply with just the number (in %).

compound | β-sheet content of apo-hTf / %
[Cl-].[Cl-].[Mo+4].c1cc[cH-]c1.c1cc[cH-]c1 | 19.3
[Cl][Zr+2][Cl].c1cc[cH-]c1.c1cc[cH-]c1 | 18.6
[Cl-].[Cl-].[Hf+4].c1cc[cH-]c1.c1cc[cH-]c1 | 18
[Cl-].[Cl-].[Ti+4].c1cc[cH-]c1.c1cc[cH-]c1 [Cp2TiCl2, titanocene dichloride] | 18.6
[Cl-].[Cl-].[V+4].c1cc[cH-]c1.c1cc[cH-]c1 | 19.2

In: Can you share its β-sheet content of apo-hTf? I mean this compound: C1CCCC1.C1CCCC1.[Cl][W][Cl]
Out: 18.7

In: Can you share its β-sheet content of apo-hTf? I mean this compound: C1CCCC1.C1CCCC1.[Cl][Nb][Cl]
Out: 19.4

In: Can you share its β-sheet content of apo-hTf? I mean this compound: N.N.[Cl][Pt][Cl] [(NH3)2Pt(II)Cl2, cis-diamminedichloroplatinum (II), reference compound]
Out: 18.6

====

# target_or_system: apo-human transferrin (apo-hTf) (Homo sapiens, UniProt P02787)
# Sequence (P02787 20-698): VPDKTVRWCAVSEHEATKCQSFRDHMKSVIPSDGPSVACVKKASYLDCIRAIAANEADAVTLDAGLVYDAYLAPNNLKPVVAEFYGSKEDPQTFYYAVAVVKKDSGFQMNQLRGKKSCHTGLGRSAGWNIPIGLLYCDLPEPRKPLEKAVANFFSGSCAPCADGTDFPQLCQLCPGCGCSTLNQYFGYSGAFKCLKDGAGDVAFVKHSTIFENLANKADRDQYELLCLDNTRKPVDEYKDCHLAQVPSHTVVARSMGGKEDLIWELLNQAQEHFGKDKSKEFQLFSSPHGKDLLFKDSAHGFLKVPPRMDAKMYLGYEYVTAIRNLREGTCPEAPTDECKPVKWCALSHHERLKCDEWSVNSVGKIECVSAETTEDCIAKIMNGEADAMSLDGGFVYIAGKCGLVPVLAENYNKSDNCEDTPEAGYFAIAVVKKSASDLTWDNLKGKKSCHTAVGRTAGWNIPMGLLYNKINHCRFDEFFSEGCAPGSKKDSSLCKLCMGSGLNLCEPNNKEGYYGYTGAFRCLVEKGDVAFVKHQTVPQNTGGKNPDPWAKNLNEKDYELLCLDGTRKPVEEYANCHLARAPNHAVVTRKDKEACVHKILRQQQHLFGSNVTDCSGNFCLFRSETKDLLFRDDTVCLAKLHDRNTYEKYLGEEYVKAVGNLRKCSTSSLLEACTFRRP
# test: Far-UV circular dichroism titration of apo-hTf, secondary structure content
# experimental_setup: compound concentration 0.4 (M)
Measured β-sheet content of apo-hTf, listed per entry for reference.
Reply with just the number (in %).

compound | target_or_system | reported_measurement
[Cl-].[Cl-].[V+4].c1cc[cH-]c1.c1cc[cH-]c1 | apo-human transferrin (apo-hTf) (Homo sapiens, UniProt P02787) | 17.9

In: Can you share its β-sheet content of apo-hTf? I mean this compound: N.N.[Cl][Pt][Cl] [(NH3)2Pt(II)Cl2, cis-diamminedichloroplatinum (II), reference compound]
Out: 18.1

In: Can you share its β-sheet content of apo-hTf? I mean this compound: C1CCCC1.C1CCCC1.[Cl][Nb][Cl]
Out: 17.7

In: Can you share its β-sheet content of apo-hTf? I mean this compound: [Cl-].[Cl-].[Mo+4].c1cc[cH-]c1.c1cc[cH-]c1
Out: 18.1

In: Can you share its β-sheet content of apo-hTf? I mean this compound: C1CCCC1.C1CCCC1.[Cl][W][Cl]
Out: 18.2

In: Can you share its β-sheet content of apo-hTf? I mean this compound: [Cl-].[Cl-].[Hf+4].c1cc[cH-]c1.c1cc[cH-]c1
Out: 17.5

In: Can you share its β-sheet content of apo-hTf? I mean this compound: [Cl][Zr+2][Cl].c1cc[cH-]c1.c1cc[cH-]c1
Out: 18.1

In: Can you share its β-sheet content of apo-hTf? I mean this compound: [Cl-].[Cl-].[Ti+4].c1cc[cH-]c1.c1cc[cH-]c1 [Cp2TiCl2, titanocene dichloride]
Out: 18

====

# target_or_system: apo-human transferrin (apo-hTf) (Homo sapiens, UniProt P02787)
# test: Far-UV circular dichroism titration of apo-hTf, secondary structure content
# experimental_setup: compound concentration 2.4 (M)
Measured random coil content of apo-hTf, listed per entry for reference.
Reply with just the number (in %).

Answered examples (4):
molecule | target_or_system | random coil content of apo-hTf, %
[Cl][Zr+2][Cl].c1cc[cH-]c1.c1cc[cH-]c1 | apo-human transferrin (apo-hTf) (Homo sapiens, UniProt P02787) | 34.1
N.N.[Cl][Pt][Cl] [(NH3)2Pt(II)Cl2, cis-diamminedichloroplatinum (II), reference compound] | apo-human transferrin (apo-hTf) (Homo sapiens, UniProt P02787) | 34.1
C1CCCC1.C1CCCC1.[Cl][Nb][Cl] | apo-human transferrin (apo-hTf) (Homo sapiens, UniProt P02787) | 34.8
[Cl-].[Cl-].[Hf+4].c1cc[cH-]c1.c1cc[cH-]c1 | apo-human transferrin (apo-hTf) (Homo sapiens, UniProt P02787) | 34.1

In: Can you share its random coil content of apo-hTf? I mean this molecule: [Cl-].[Cl-].[V+4].c1cc[cH-]c1.c1cc[cH-]c1
Out: 34.6

In: Can you share its random coil content of apo-hTf? I mean this molecule: C1CCCC1.C1CCCC1.[Cl][W][Cl]
Out: 34.4

In: Can you share its random coil content of apo-hTf? I mean this molecule: [Cl-].[Cl-].[Mo+4].c1cc[cH-]c1.c1cc[cH-]c1
Out: 34.7

In: Can you share its random coil content of apo-hTf? I mean this molecule: [Cl-].[Cl-].[Ti+4].c1cc[cH-]c1.c1cc[cH-]c1 [Cp2TiCl2, titanocene dichloride]
Out: 34
